- Read-out: CD38, CD38 (gene 952)
- Protocol description: BSK_SAg_CD38: BioMAP Diversity Plus: SAg Assay for CD38 Biomarker Activity (AID 2283087)
- Measurement context: primary human HUVEC with PBMC; actives raise or lower the signal
Activity calls are given as the source filed them. How the source made its calls: active means hit-call score of the fitted dose curve at least 0.9, where 1 is the maximum; inactive means score below 0.9.
Bench note: report the call from active, inactive

The examples below pair each entry with its known result.
{"Compound": "CCCCC1C(=O)N(c2ccccc2)N(c2ccccc2)C1=O", "Group": "inactive"}
{"Compound": "CCCCCC1=CCCC1=O", "Group": "inactive"}

Any idea what this test logged for CCOC(=O)C1=NN(c2ccc(Cl)cc2Cl)C(C)(C(=O)OCC)C1 (configuration not stated) ?
inactive

Which outcome did this test record for the compound CCOC(=O)/C=C\C(=O)OCC ?
inactive

What call does the record list for O=C(O)C(F)(F)C(F)(F)C(F)(F)C(F)(F)C(=O)O ?
inactive

Fill in: this test's call for Nc1nc(N)nc(-c2ccccc2)n1 is ___
inactive

Could you check what this test reported for CCN1CN(CC)CN(CC)C1 ?
inactive

State the result this test recorded for C=CC(=O)OCCCCCCOC(=O)C=C .
active

# fetch the recorded call for CCC1(C)C(=O)N(Cl)C(=O)N1Cl (configuration not stated) here
inactive

Record request — test call for CC1(C)CC(O)CC(C)(C)N1[O]
inactive

Fill in: this test's call for C=CC(=O)NCOCCCC is ___
inactive

For this compound, state the assay outcome: O=C(Oc1ccccc1)c1ccccc1C(=O)Oc1ccccc1
active
